- PROTOCOL: In vivo pharmacokinetic experiments in SD rats (oral and intravenous)
- CONDITION INFO: male, Sprague-Dawley (SD), rat, po, Gavage administration - 10 mg/kg, plasma
EXPERIMENTAL ENDPOINT: AUC(0-inf) (ng·h/mL)
Your answer should be a plain number; it is taken to be in ng·h/mL.

[in] What measured AUC(0-inf) goes with CCOC(=O)OC(C)OC(=O)c1cnn(-c2ccc3c(c2)c(C#N)cn3C(C)C)c1 (stereo not shown) ?
[out] 12400

====

- PROTOCOL: In vivo pharmacokinetic experiments in SD rats (oral and intravenous)
- CONDITION INFO: male, Sprague-Dawley (SD), rat, po, Gavage administration - 10 mg/kg, plasma
EXPERIMENTAL ENDPOINT: half-life

[in] What measured half-life goes with CCOC(=O)OC(C)OC(=O)c1cnn(-c2ccc3c(c2)c(C#N)cn3C(C)C)c1 (stereo not shown) [compound 11] ?
[out] 3.44 h

====

- PROTOCOL: In vivo pharmacokinetic experiments in SD rats (oral and intravenous)
- CONDITION INFO: male, Sprague-Dawley (SD), rat, Intravenous injection administration - 1 mg/kg, plasma
EXPERIMENTAL ENDPOINT: MRT inf (h)
Your answer should be a plain number; it is taken to be in h.

[in] What measured MRT inf goes with CCOC(=O)OC(C)OC(=O)c1cnn(-c2ccc3c(c2)c(C#N)cn3C(C)C)c1 (stereo not shown) ?
[out] 3.69

====

- PROTOCOL: In vivo pharmacokinetic experiments in SD rats (oral and intravenous)
- CONDITION INFO: male, Sprague-Dawley (SD), rat, Intravenous injection administration - 1 mg/kg, plasma
EXPERIMENTAL ENDPOINT: AUC(0-inf) (ng·h/mL)
Your answer should be a plain number; it is taken to be in ng·h/mL.

[in] What measured AUC(0-inf) goes with CCOC(=O)OC(C)OC(=O)c1cnn(-c2ccc3c(c2)c(C#N)cn3C(C)C)c1 (stereo not shown) ?
[out] 1100

====

- PROTOCOL: In vivo pharmacokinetic experiments in SD rats (oral and intravenous)
- CONDITION INFO: male, Sprague-Dawley (SD), rat, po, Gavage administration - 10 mg/kg, plasma
EXPERIMENTAL ENDPOINT: MRT inf
Be sure to follow the number with its unit.

[in] What measured MRT inf goes with CCOC(=O)OC(C)OC(=O)c1cnn(-c2ccc3c(c2)c(C#N)cn3C(C)C)c1 (stereo not shown) ?
[out] 4.22 h

====

- PROTOCOL: In vivo pharmacokinetic experiments in SD rats (oral and intravenous)
- CONDITION INFO: male, Sprague-Dawley (SD), rat, po, Gavage administration - 10 mg/kg, plasma
EXPERIMENTAL ENDPOINT: Tmax (min)
Your answer should be a plain number; it is taken to be in min.

[in] What measured Tmax goes with CCOC(=O)OC(C)OC(=O)c1cnn(-c2ccc3c(c2)c(C#N)cn3C(C)C)c1 (stereo not shown) [compound 11] ?
[out] 15

====

- PROTOCOL: In vivo pharmacokinetic experiments in SD rats (oral and intravenous)
- CONDITION INFO: male, Sprague-Dawley (SD), rat, Intravenous injection administration - 1 mg/kg, plasma
EXPERIMENTAL ENDPOINT: Cmax (ng/mL)
Your answer should be a plain number; it is taken to be in ng/mL.

[in] What measured Cmax goes with CCOC(=O)OC(C)OC(=O)c1cnn(-c2ccc3c(c2)c(C#N)cn3C(C)C)c1 (stereo not shown) ?
[out] 1860
